- System: U2OS
- method_notes: Incucyte cell viability with U2OS; also: filed as whole numbers so only -1 and 0 and 1 occur
- Assay type: toxicity, cell-based
- particulars: human, 24 h, 10 µM, compound concentration 10 uM, replicate number 1, timepoint 24 hours
value_kind: Growth Rate

- O=C(Nc1cccc2c(=O)cc(-c3nnn[nH]3)oc12)c1ccc(OCCCCc2ccccc2)cc1: 1
- Cc1nc(C#Cc2ccnc(Cl)c2)c(C)n1-c1ccc(OC(F)(F)F)cc1: 1
- COc1cccc(OC)c1-c1cc(C(=O)NC2(C(=O)O)C3CC4CC(C3)CC2C4)nn1-c1ccnc2cc(Cl)ccc12 (stereo not given): 0
- CN1C(=O)[C@@H](N2CCc3c(nn(Cc4ccccc4)c3Br)C2=O)COc2ccccc21: 0
- O=C(O)CC1CCC2(CC1)CCN(c1cc(OC(F)(F)F)ccc1Cl)CC2: 1
- COc1cc(N2CCC(N(C)C)CC2)ccc1Nc1ncc(Cl)c(Nc2ccccc2P(C)(C)=O)n1: 0
- Cn1cc(-c2ccc3occ(-c4ccccc4-c4ccccc4)c3n2)cn1: 1
- COc1cccc(CNC(=O)c2nc3scc(CN(C)Cc4ccccc4)c3c(=O)[nH]2)c1 [T-26f]: 1
- CN(C)C(=O)c1ccc(-c2cc(C(=O)N(C)C3CCCC3)no2)cc1O: 1
- CN(C)C(=O)Cn1cc(-c2nc(C3(c4ccc(-c5cnc(N)nc5)cc4)CC3)no2)cn1: 0
- Oc1ccc(-c2nc3cc(O)cc(Br)c3o2)cc1: 1
- Cc1cc(C(=O)N2Cc3cnn(C)c3Nc3ccccc32)ccc1CNC(=O)N1CCC[C@H]1C(=S)N1CCCN(C)CC1: 0
- CN(C)CCCn1cc(C2=C(c3c[nH]c4ccccc34)C(=O)NC2=O)c2ccccc21: 0
- COc1cc2c(Nc3ccc(NC(=O)c4ccccc4)cc3)ncnc2cc1OCCCN1CCOCC1: 0
- CNc1nc(-c2ccc3c(N)n[nH]c3c2)cc(N2C[C@@H](C(=O)NC3CCCCC3)CC[C@H]2C)n1: 0

* * *

- Tested on: Fibroblast
- method_notes: Multiplex assay against human fibroblast
- Format: toxicity, cell-based
- particulars: 12 h, 1 µM, compound concentration 1 uM, replicate 2
value_kind: Population Fragmented Nuclei (%)

* Nc1nc2c(c(N3CCNCC3)n1)CCC1=C2[C@@H]2CCCC[C@@H]2O1 | 20%
* CN(C)C/C=C/C(=O)Nc1cc2c(Nc3ccc(F)c(Cl)c3)ncnc2cc1O[C@H]1CCOC1.O=C(O)/C=C\C(=O)O.O=C(O)/C=C\C(=O)O [AFATINIB DIMALEATE] | 60%
* Cc1cn(-c2cc(NC(=O)c3ccc4c(c3)CN(c3cncnc3)C[C@@H]4C)cc(C(F)(F)F)c2)cn1 | 58%
* c1ccc2oc(-c3csc(C4CCN(Cc5nc6ncccc6[nH]5)CC4)n3)cc2c1 | 59%
* CCn1c(-c2nonc2N)nc2cnc(Oc3cccc(NC(=O)c4ccc(OCCN5CCOCC5)cc4)c3)cc21 [GSK-269962A] | 20%
* COc1ccc(NS(=O)(=O)c2sc3ccc(Cl)cc3c2C)cc1N1CCNCC1.Cl | 13%
* COc1cc2c(Nc3ccc(NC(=O)c4ccccc4)cc3)ncnc2cc1OCCCN1CCOCC1 | 44%
* CCOc1cc2ncc(C#N)c(Nc3ccc(OCc4cccc(F)c4)c(Cl)c3)c2cc1NC(=O)/C=C/CN(C)C [HKI-357] | 60%

* * *

- Test system: U2OS
- method_notes: Multiplex assay against U2OS
- Type: toxicity, cell-based
- particulars: human, 12 h, 1 µM, compound concentration 1 uM, replicate 1
value_kind: Total Cell Count

- CCn1c(-c2nonc2N)nc2cnc(Oc3cccc(NC(=O)c4ccc(OCCN5CCOCC5)cc4)c3)cc21 [GSK-269962A]: 156
- N#Cc1cnc(Nc2cc(NC[C@H]3CNCCO3)c(C(F)(F)F)cn2)cn1: 249
- CCC(=O)O[C@]1(C(=O)SCF)[C@H](C)C[C@H]2[C@@H]3C[C@H](F)C4=CC(=O)C=C[C@]4(C)[C@@]3(F)[C@@H](O)C[C@@]21C [FLUTICASONE PROPIONATE]: 182
- COc1cc2c(Nc3ccc(NC(=O)c4ccccc4)cc3)ncnc2cc1OCCCN1CCOCC1: 121

* * *

- Tested on: U2OS
- method_notes: Incucyte cell viability with U2OS; also: filed as whole numbers so only -1 and 0 and 1 occur
- Assay type: toxicity, cell-based
- particulars: human, 12 h, 10 µM, compound concentration 10 uM, replicate number 2, timepoint 12 hours
value_kind: Growth Rate

• CCCCc1nc2ccc(NC(=O)NC3CCCCC3)cc2n1Cc1ccc(-c2ccccc2C(=O)O)cc1 = 1
• CCC(=O)N[C@@H]1CC[C@H](C(=O)N(C)c2ccc(-c3nc4ccccc4o3)cc2)C1 = 1
• COc1ccc(COc2ccc(Cc3cnc(N)nc3N)cc2OC)cc1 [GW632580X] = 0
• CN1CC(=O)N=C1NC(=O)Nc1cccc(Cl)c1 [FENOBAM ANHYDROUS] = 1
• O=C(NC[C@H](O)CN1CCc2ccccc2C1)c1ccnc(NC2CCC2)c1 = 1
• Cc1c(Oc2ccc(F)cc2)c(OC(C)C)nn1-c1ccc(C2CC2)cn1 = 0
• C=CCN1C[C@H](C)N([C@H](c2ccc(C(=O)N(CC)CC)cc2)c2cccc(O)c2)C[C@H]1C = 1
• CCOc1cc(N2CCC(O)CC2)ccc1Nc1ncc2c(n1)N(C1CCCC1)CCC(=O)N2C = 0
• CNc1nc(-c2ccc3c(N)n[nH]c3c2)cc(N2C[C@@H](C(=O)NC3CCCCC3)CC[C@H]2C)n1 = 1
• CCC1(C2=NCCN2)Cc2ccccc2O1 (stereo unspecified) = 1
• Nc1nc(NCCc2ccc(O)cc2)nc2nc(-c3ccco3)nn12 = 1
• Cc1cn(-c2cc(NC(=O)c3ccc4c(c3)CN(c3cncnc3)C[C@@H]4C)cc(C(F)(F)F)c2)cn1 = 1
• Cc1cnc(-c2cc(Cl)ccc2F)cc1-n1c(=O)n(CC(N)=O)c2cnccc21 = 1
• c1ccc2oc(-c3csc(C4CCN(Cc5nc6ncccc6[nH]5)CC4)n3)cc2c1 = 1
• CCC(=O)N1CC[C@H](Nc2ncnc3c2CN(c2cnc(OC)c(C(F)(F)F)c2)CC3)C1 = 1
• CCC(=O)O[C@]1(C(=O)SCF)[C@H](C)C[C@H]2[C@@H]3C[C@H](F)C4=CC(=O)C=C[C@]4(C)[C@@]3(F)[C@@H](O)C[C@@]21C [FLUTICASONE PROPIONATE] = 1
• O=C(O)COc1cccc(CN(Cc2ccc(-n3cccn3)cc2)S(=O)(=O)c2cccnc2)c1 = 0
• FC(F)c1nc2ccccc2n1-c1nc(N2CCOCC2)nc(N2CCOCC2)n1 = 0
• CN(C(=O)Cc1ccc(Cl)c(Cl)c1)C(CN1CCCC1)c1cccc(OCC(=O)O)c1.Cl (stereo unspecified) = 1
• Cl.Cl.Nc1ncnc2c1c(-c1cccc(OCc3ccccc3)c1)cn2[C@H]1C[C@@H](CN2CCC2)C1 = 1
• C[C@@H]1CCc2ncc(F)cc2[C@H]2CCCN2c2ccn3ncc(c3n2)C(=O)N1 = 0
• COc1ccc(/C=C/CCCCOc2ccc(C(=O)c3cccc(C(=O)O)c3)cc2CCC(=O)O)cc1 = 0
• CC1=C(C#N)C(c2ccc3c(c2)c(NC(=O)c2ccccc2C)nn3C)C(C#N)=C(C)N1 = 0
• CN(C)CC[C@@H](c1ccc(Cl)cc1)c1ccccn1.O=C(O)/C=C\C(=O)O [DEXCHLORPHENIRAMINE MALEATE] = 0
• CCOC(=O)c1cc(C#N)c(N2CCC(C(=O)NS(=O)(=O)Cc3ccccc3)CC2)nc1C = 1
• Oc1ccc(-c2nc3cc(O)cc(Br)c3o2)cc1 = 0

* * *

Listed compounds paired with reported Population Membrane Permeable-Phenotype (%)
- System: Fibroblast
- method_notes: Multiplex assay against human fibroblast
- Format: toxicity, cell-based
- particulars: 24 h, 1 µM, compound concentration 1 uM, replicate 2
value_kind: Population Membrane Permeable-Phenotype (%)

* CN(C)C/C=C/C(=O)Nc1cc2c(Nc3ccc(F)c(Cl)c3)ncnc2cc1O[C@H]1CCOC1.O=C(O)/C=C\C(=O)O.O=C(O)/C=C\C(=O)O [AFATINIB DIMALEATE] | 0%
* COc1cc2c(NC3CCN(C(C)C)CC3)nc(N3CCC(F)(F)CC3)nc2cc1OCCCN1CCCC1 | 2%
* O=C(O)c1ccc2cc(-c3ccc(O)c(C45CC6CC(CC(C6)C4)C5)c3)ccc2c1 [O-DEMETHYLATED ADAPALENE] | 6%
* CC(=O)c1cc(-c2cc(C(=O)NC3CC3)ccc2C)c2ncccn12 | 3%
* CC(C)(C)c1cnc(CSc2cnc(NC(=O)C3CCNCC3)s2)o1 [BMS-387032] | 5%
* CCC(=O)O[C@]1(C(=O)SCF)[C@H](C)C[C@H]2[C@@H]3C[C@H](F)C4=CC(=O)C=C[C@]4(C)[C@@]3(F)[C@@H](O)C[C@@]21C [FLUTICASONE PROPIONATE] | 11%
* CCc1cc2c(cc1CC)CC(NC[C@H](O)c1ccc(O)c3[nH]c(=O)ccc13)C2 [INDACATEROL] | 0%

From: ChEMBL document CHEMBL4689842
